Cited source for all entries: the supplement of paper PMC12764529

- assay summary: folding stability dG unfold from trypsin proteolysis; higher = more stable
// Condition not met strictly below 0.8 kcal/mol in folding stability dG unfold; Condition met otherwise

The following sequences have reported results that may help.
>  <seq text>
SEMTAEELAARLAERLAEEHPGEEVTVEIEVEAEVVDEETGETRTVRVTVTLRFRDGKVEVVDVKVEELPSA [r9_361_TrROS_Hall]

>  <group label>
Condition met

$$$$
>  <seq text>
SAGGSASVSDVTTTTVTVTVEVTEDPATGLQRLTATHPDLSFERLVPAGTIPADTTVTLDVTVTTGSAGGSA [r15_190_JUSTAS]

>  <group label>
Condition not met

$$$$
>  <seq text>
SAGGSAGGGFVTIEVEITEVVGKTKDEEGKPHPGDPNDPSGYVKLPPFPVKVPSSPEEYAALLSSAGGSAGG [r6_219_JUSTAS]

>  <group label>
Condition not met

$$$$
>  <seq text>
SAGGSAGGSAGGAEELAKELAEKLGLEKKKVLIKLPNGKVVEVTIEDLKKLNLKNAEIVPSAGGSAGGSAGG [r7_863_TrROS_Hall]

>  <group label>
Condition met

$$$$

Now consider a different sequence.
folding stability dG unfold >= 0.8 kcal/mol for SAGGSAGGSAGGPKTVRIVEYDPETQRVVIELEDGSKVVIEVPPGMSVEELKGKTLTVEPSAGGSAGGSAGG [r7_296_TrROS_Hall] ?
Condition met
